This section lists GI50 readings for U251 CNS.

See these solved cases before continuing.
INSERT INTO measurements (mol_smiles, readout_name, observed) VALUES
  ('O=C(O)c1c[nH]c2c(OCc3ccccc3)c3ccccc3c(O)c2c1=O', 'GI50', '2.43 µM'),
  ('COc1ccc2c(c1)/C(=C\c1c(Cl)n(C)c3ccccc13)C(=O)N2', 'GI50', '0.817 µM'),
  ('COc1cc(/C=C2\C(=O)N(c3ccccc3)c3ccccc32)cc(OC)c1OC', 'GI50', '3.87 µM');

Hi, could you look up GI50 for each item in my list?
1. COc1nc(N)nc2c1ncn2[C@@H]1O[C@H](CO)[C@@H](O)[C@@H]1O
2. CC(C)n1c(=O)n(C)c2cnc3cc(F)c(-c4ccc(OCCCN5CCCCC5)nc4)cc3c21

1. > 100 µM
2. 13.5 µM

----------
Test system: EKVX NSCLC
EXPERIMENTAL PROTOCOL: NCI tumour cell line growth inhibition, 48 h
Assign TGI to each entry below.

See these solved cases before continuing.
INSERT INTO results (compound, readout_name, observed) VALUES
  ('COc1ccccc1/C=C/c1c(N)ncnc1Nc1cccc(Cl)c1', 'TGI', '> 100 µM'),
  ('Cc1ccc2[nH]c3c(c2c1)CCC/C3=N/N=C(N)N', 'TGI', '6.78 µM'),
  ('CC[C@@H]1CC[C@@H]2[C@H](CC[C@]3(C)[C@@H](O)CC[C@@H]23)[C@H]1CO', 'TGI', '> 100 µM'),
  ('Cn1c(=O)n2c(-c3ccccc3)c(-c3ccccc3)n2c1=O', 'TGI', '> 100 µM');

Hi, could you look up TGI for each item in my list?
1. N#C/C(C(=S)Nc1ccccc1)=C(/N)N1CCCC1
2. O=c1c2cc(-c3ccccc3)cnc2sn1-c1ccc(Oc2ccccc2)cc1
3. CC1=NC(C(C)C)C(=O)O1 (stereo unspecified)
4. CO/N=C(\C(=O)Nc1cncs1)c1csc(N)n1

["> 100 µM", "> 100 µM", "> 100 µM", "> 10 µM"]

----------
System: A549 NSCLC
EXPERIMENTAL PROTOCOL: NCI tumour cell line growth inhibition, 48 h
Where a SMILES comes first, the peptide text is derived from it. [ ]: non-standard residue; d: D form. The star is where a group is joined. NMeF = CN[C@@H](Cc1ccccc1)C(=O)O; NMeV = CN[C@H](C(=O)O)C(C)C; Boc = CC(C)(C)OC(=O)*; OBn = c1ccc(CO*)cc1
READOUT NAME: GI50

See these solved cases before continuing.
INSERT INTO results (compound, observed) VALUES
  ('CCN(CC)CCCCNc1ncc2cc(-c3cc(OC)cc(OC)c3)c(NC(=O)NC(C)(C)C)nc2n1', '7.84 µM'),
  ('COc1ccc2cc(Cn3cc[n+](Cc4ccc5ccccc5c4)c3)ccc2c1', '8.16 µM'),
  ('CC1(C)N=C(N)N=C(N)N1c1cccc(CCCCOc2ccccc2)c1', '0.0562 µM');

Hi, could you look up GI50 for each item in my list?
1. O=C(Cc1ccccc1)NC(c1ccc(Cl)cc1)c1c(O)ccc2ccccc12 (centres undefined)
2. CC1OC(n2c3ccccc3c3c4c(c5c6ccccc6[nH]c5c32)C(=O)N(CCN2CCOCC2)C4=O)CC(O)C1O (centres undefined)
3. C=Cc1cc(OC)c2c(c1)c(=O)oc1c2cc(OC)c2c(O)ccc(C3OC(C)C(O)C(C)(O)C3O)c21 (centres undefined)
4. Cc1cc2cc3cc(C)c(N)cc3[n+](C)c2cc1N
5. CC(C)[C@@H](C(=O)N1CCC[C@H]1C(=O)OCc1ccccc1)N(C)C(=O)[C@H](C(C)C)N(C)C(=O)[C@H](Cc1ccccc1)N(C)C(=O)[C@H](NC(=O)OC(C)(C)C)C(C)C (Boc-[dV][NMeF][NMeV][NMeV]P-OBn)
6. COc1ccc(OC)c(/C=C2\COc3ccc(O)c(O)c3C2=O)c1
7. O=C(O)c1c[nH]c2c(OCc3ccccc3)c3ccccc3c(O)c2c1=O
8. Cc1cc(C)c2nc3nc(C)cc(C)c3c(N)c2c1

1: 3.68 µM; 2: 2.51 µM; 3: 0.000716 µM; 4: 1 µM; 5: > 100 µM; 6: 3.07 µM; 7: 16.4 µM; 8: 4.34 µM

----------
Test system: OVCAR-8 ovarian
EXPERIMENTAL PROTOCOL: NCI tumour cell line growth inhibition, 48 h
Assign TGI to each entry below.

INSERT INTO assay_data (compound, readout_name, observed) VALUES
  ('O=C(O)c1ccccc1-c1ccccc1C(=O)Nc1ccc2c(c1)[nH]c(=O)c1ccccc12', 'TGI', '> 100 µM'),
  ('Cc1[nH]nc2ccc3nc(-c4ccc5[nH]ncc5c4)c4c(c3c12)CCCC4', 'TGI', '13.2 µM'),
  ('CSc1nc(C)c(Br)c(=O)n1C1OC(COC(C)=O)C(OC(C)=O)C(OC(C)=O)C1OC(C)=O (stereo unspecified)', 'TGI', '> 100 µM'),
  ('Cc1sc(NC2=NC(=O)/C(=C\c3ccccc3)S2)nc1-c1nc(NC2=NC(=O)/C(=C\c3ccccc3)S2)sc1C', 'TGI', '> 39.6 µM'),
  ('Cn1c(=O)cc(N=Nc2ccc(Cl)c(Cl)c2)[nH]c1=O', 'TGI', '53 µM'),
  ('CCCC1=C(C(=O)OCC)C(c2ccccc2OC)C(C#N)=C(N)O1 (stereo unspecified)', 'TGI', '> 100 µM');

Hi, could you look up TGI for each item in my list?
1. O=Nc1sc(=N\O)/c(=N/O)sc1NO
2. Cc1ccc2ccc3ccc(C)nc3c2n1
3. COC(=O)C1(Cc2cccc(C)c2)Cc2c(C)cccc2C1=O (stereo unspecified)
4. Cn1c(=O)n2c(-c3ccccc3)c(-c3ccccc3)n2c1=O

["> 100 µM", "> 100 µM", "> 100 µM", "> 100 µM"]

Provide only the value of recorded TGI for "NCCCCN(CCCN)Cc1ccc2ccccc2c1"
> 100 µM

----------
Tested on: TK-10 renal
EXPERIMENTAL PROTOCOL: NCI tumour cell line growth inhibition, 48 h
READOUT NAME: GI50

INSERT INTO results (compound, readout_name, observed) VALUES
  ('CC1OC(n2c3ccccc3c3c4c(c5c6ccccc6[nH]c5c32)C(=O)N(CCN2CCOCC2)C4=O)CC(O)C1O (stereo not drawn)', 'GI50', '6.33 µM'),
  ('Cc1cc(C)c2nc3nc(C)cc(C)c3c(N)c2c1', 'GI50', '3.34 µM');

Hi, could you look up GI50 for each item in my list?
1. N=c1n(Cc2ccccc2)c(N)cc(=O)n1Cc1ccccc1
2. O=C1/C(=C/c2ccccc2F)CN(C(=O)C(Cl)Cl)C/C1=C\c1ccccc1F
3. COc1cccc(Cn2c(-c3nonc3NC(C)=O)nc3ccccc32)c1
4. COc1cc(C2CC(c3ccccc3)=NN2C(C)=O)cc(OC)c1OC (stereo not drawn)
5. COc1nc(N)nc2c1ncn2[C@@H]1O[C@H](CO)[C@@H](O)[C@@H]1O
6. CS(=O)(=O)c1ccc(Oc2cc(F)cc(C#N)c2)c2c1[C@H](O)C(F)(F)C2

1: 2.22 µM; 2: 1.61 µM; 3: 2.65 µM; 4: > 46.9 µM; 5: > 100 µM; 6: > 100 µM

Hi, could you look up GI50 for each item in my list?
1. O=S(=O)(CCNCc1ccc(-c2ccc3ncnc(Nc4ccc(OCc5cccc(F)c5)c(Cl)c4)c3c2)o1)c1ccccc1
2. O=C(NC1CCCCC1)NS(=O)(=O)c1ccc(-n2nc3c(c2-c2ccc(Cl)cc2)Cc2ccccc2-3)cc1
3. O=C(NCCNc1nccc(-c2c(-c3ccc(F)cc3)nc3sccn23)n1)c1ccccc1
4. O=C(CN1C(=O)S/C(=C\C(Cl)=C\c2ccccc2)C1=O)NCCc1ccc(O)cc1

1. > 13.2 µM
2. 13.3 µM
3. 15.8 µM
4. 2.42 µM

Hi, could you look up GI50 for each item in my list?
1. N#C/C(=C1C=C/C(=N\O)C(Cl)=C\1)c1ccccc1
2. CCN(CC)CCCCNc1ncc2cc(-c3cc(OC)cc(OC)c3)c(NC(=O)NC(C)(C)C)nc2n1
3. CCCC1=C(C(=O)OCC)C(c2ccccc2OC)C(C#N)=C(N)O1 (stereo not drawn)

5.12 µM
6.77 µM
46.1 µM

Hi, could you look up GI50 for each item in my list?
1. Cc1[nH]nc2ccc3nc(-c4ccc5[nH]ncc5c4)c4c(c3c12)CCCC4
2. COc1cc(NC(=O)CSc2nc3ccccc3c(=O)n2CCc2ccccc2)cc(OC)c1OC
3. Oc1ccc(-c2cn3cc(Cl)sc3n2)cc1

1.12 µM
1.81 µM
40.4 µM
